tested on: 266 human PDZ domains (PDZome); experiment: Holdup assay (chromatographic retention, PDZome-binding profile, BI); parameters: key: binding intensity: 0.00 = no binding, 1.00 = maximal binding; conditions: PDZ domain PARD3B-1
*1 amine or outer side, *2 acyl side, *3 side chain or, on linkers, in order; H or OH if unused. Where a SMILES comes first, the peptide text is derived from it. The star is where a group is joined. X1 = O=C(CCCC[C@@H]1SC[C@@H]2NC(=O)N[C@@H]21)NCCCOCCOCCOCCCN*; Suc = O=C(CCC(=O)[*:2])[*:1]
READOUT_LABEL: BI
Respond using a number only.

Query: Any idea what its BI is? The molecule is `CC[C@H](C)[C@H](NC(=O)[C@H](CCC(N)=O)NC(=O)[C@@H](NC(=O)[C@H](Cc1c[nH]cn1)NC(=O)[C@H](CCC(N)=O)NC(=O)[C@H](CC(=O)O)NC(=O)[C@H](CCC(=O)O)NC(=O)[C@H](CC(=O)O)NC(=O)CCC(=O)NCCCOCCOCCOCCCNC(=O)CCCC[C@@H]1SC[C@@H]2NC(=O)N[C@@H]21)[C@@H](C)O)C(=O)N[C@H](C(=O)N[C@@H](CCCCNC(C)=O)C(=O)N[C@H](C(=O)O)C(C)C)[C@@H](C)O`
Reply: -0.205

Query: Any idea what its BI is? The molecule is `CC[C@H](C)[C@H](NC(=O)[C@H](CCC(N)=O)NC(=O)[C@@H](NC(=O)[C@H](Cc1c[nH]cn1)NC(=O)[C@H](CCC(N)=O)NC(=O)[C@H](CC(=O)O)NC(=O)[C@H](CCC(=O)O)NC(=O)[C@H](CC(=O)O)NC(=O)CCC(=O)NCCCOCCOCCOCCCNC(=O)CCCC[C@@H]1SC[C@@H]2NC(=O)N[C@@H]21)[C@@H](C)O)C(=O)N[C@H](C(=O)N[C@@H](CCCCN)C(=O)N[C@H](C(=O)O)C(C)C)[C@@H](C)O`
Reply: -0.032

Query: Any idea what its BI is? The molecule is CC[C@H](C)[C@H](NC(=O)[C@H](CCC(N)=O)NC(=O)[C@@H](NC(=O)[C@H](Cc1c[nH]cn1)NC(=O)[C@H](CCC(N)=O)NC(=O)[C@H](CC(=O)O)NC(=O)[C@H](CCC(=O)O)NC(=O)[C@H](CC(=O)O)NC(=O)CCC(=O)NCCCOCCOCCOCCCNC(=O)CCCC[C@@H]1SC[C@@H]2NC(=O)N[C@@H]21)[C@@H](C)O)C(=O)N[C@H](C(=O)N[C@@H](CCCNC(=N)N)C(=O)N[C@H](C(=O)O)C(C)C)[C@@H](C)O [PTEN_KR] ({X1-Suc}-DEDQHTQITRV-OH)
Reply: -0.02

Would you kindly look at the next entry?
Query: Any idea what its BI is? The molecule is CC[C@H](C)[C@H](NC(=O)[C@H](CCC(N)=O)NC(=O)[C@@H](NC(=O)[C@H](Cc1c[nH]cn1)NC(=O)[C@H](CCC(N)=O)NC(=O)[C@H](CC(=O)O)NC(=O)[C@H](CCC(=O)O)NC(=O)[C@H](CC(=O)O)NC(=O)[C@H](Cc1ccccc1)NC(=O)[C@@H]1CCCN1C(=O)CCC(=O)NCCCOCCOCCOCCCNC(=O)CCCC[C@@H]1SC[C@@H]2NC(=O)N[C@@H]21)[C@@H](C)O)C(=O)N[C@H](C(=O)N[C@@H](CCCCN)C(=O)N[C@H](C(=O)O)C(C)C)[C@@H](C)O [PTEN_13] ({X1-Suc}-PFDEDQHTQITKV-OH)
Reply: -0.096
